Source of measurements: PubChem BioAssay AID1159580

# assay method text: chemical genetic growth profiling, strain panel (AID 1159580);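 note: tested at 20 µM; growth read once vehicle control cultures reached saturation at 30 °C; 1 = growth at the plate median or of vehicle wells; lower values mean less growth of the strain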
# condition description: S. cerevisiae deletion strains, growth OD, locus YOL012C, strain htz1
Among all 5,500 compounds or so, about 2,000 (36%) were called active. Inconclusive results (about 18%) are left out. This is one part of the list. Where a SMILES comes first, the peptide text is derived from it.
measure name: normalized growth
One number for each entry.

# annotated cases, reported normalized growth shown
compound	normalized growth
COC1=CC(=O)OC(CCc2ccc(OC)c(OC)c2)C1 (stereo not drawn)	1.25
C[C@]12CCC3c4ccc(OC(=O)c5ccccc5)cc4CCC3C1CCC2=O (stereo partly drawn)	1.22
COc1ccc2c(=O)c(OC)c(-c3ccccc3)oc2c1	0.856
NCC[C@@H](O)C(=O)N[C@@H]1C[C@H](N)[C@@H](O[C@H]2O[C@H](CN)[C@@H](O)[C@H](O)[C@H]2O)[C@H](O)[C@H]1O[C@H]1O[C@H](CO)[C@@H](O)[C@H](N)C1O (stereo partly drawn)	0.906
COP(=S)(OC)Oc1ccc([N+](=O)[O-])cc1	1.15

List the reported normalized growth of each compound below.
1. CC(=O)N[C@@H](CC(=O)O)C(=O)N[C@@H](CCC(=O)O)C(=O)O (Ac-Asp-Glu-OH)
2. CC(C)/C(O)=C1/C(=O)O[C@@H](c2ccoc2)[C@]2(C)C(O)[C@@H](O)[C@@]34OC5(C)OC67CC(C)(C(O)[C@]6(O)[C@@H](O)[C@]3(O5)C12)[C@H](CC(=O)O)[C@]74C (stereo partly drawn)
3. NC1(C(=O)O)CCC1

Response:
0.942
0.728
1.73

List the reported normalized growth of each compound below.
1. C[C@]12CCC3c4ccc(O)cc4CCC3C1CCC2=O (stereo partly drawn)
2. CC1[C@H](C)OC(=O)CC(O)CC(O)CC(O)CCC(O)C(O)C[C@]2(O)CC(O)C(C(=O)O)C(CC(OC3O[C@H](C)[C@@H](O)[C@H](N)[C@@H]3O)/C=C/C=C/C=C/C=C/CC/C=C/C=C/[C@H](C)[C@H]1O)O2 (stereo partly drawn)
3. CC1CCC(NC(=O)N(CCCl)N=O)CC1 (stereo not drawn)
4. Fc1ccc([C@@H]2CCNC[C@H]2COc2ccc3c(c2)OCO3)cc1
5. NC1(C(=O)O)CC1
6. CC(=O)OC1CC(O)C(C)(C)C2CC(=O)C3(C)C(CCC4(C)C(c5ccoc5)OC(=O)C5OC543)C12C (stereo not drawn)
7. COc1ccc2oc(-c3ccccc3)c(OC)c(=O)c2c1
8. CCCn1c(=O)c2[nH]c(C3CCCC3)nc2n(CCC)c1=O

Response:
1: 1.42; 2: 0.206; 3: 0.346; 4: 1.14; 5: 0.791; 6: 0.734; 7: 0.77; 8: 0.878

List the reported normalized growth of each compound below.
1. NC1(C(=O)O)CCCC1
2. CN(C)CCC(c1ccccc1)c1ccccn1 (stereo not drawn)
3. CC1(C)C(=O)[C@@H]2O[C@@H]2[C@@]2(C)C1C[C@@H](O)[C@]1(C)C2CC[C@@]2(C)[C@H](c3ccoc3)OC(=O)C3OC321 (stereo partly drawn)
4. CC(=O)NCCc1c[nH]c2ccc(O)cc12
5. O=c1cccc2n1CC1CC2CN2CCCC[C@@H]12 (stereo partly drawn)

Response:
1. 0.665
2. 2.13
3. 0.956
4. 1.04
5. 0.724

List the reported normalized growth of each compound below.
1. CC(=O)O[C@H]1C[C@@H](OC(C)=O)C(C)(C)C2C[C@@H](OC(C)=O)[C@]3(C)C(CC[C@@]4(C)[C@H](c5ccoc5)OC(=O)[C@H]5O[C@]543)[C@]21C (stereo partly drawn)
2. COC(=O)[C@@H]1OC(=O)C2OC23[C@@]1(C)CCC1[C@@]2(C)CCC(=O)C(C)(C)C2C[C@@H](OC(C)=O)[C@]13C (stereo partly drawn)

Response:
[1, 1.07]
